Data origin: patent US8883782B2

# IC50 annotations
# Test system: Aβ40 in conditioned medium of cells stably expressing Amyloid Precursor Protein (APP)
# ASSAY_NAME: In vitro BACE cell-based assay (Aβ40 in conditioned medium, sandwich ELISA)
# APPLIED_CONDITIONS: Homo sapiens, HEK293, average IC50; read-out: HEK cell assay
Numeric answer only, unit nM assumed.

# count of solved cases: 5
[
  {
    "MOLECULE": "CC#Cc1cncc(-c2ccc3c(c2)[C@@]2(COC(N)=N2)c2cc(C4=CCOCC4)nc(F)c2O3)c1 [Example 760]",
    "UNIT_STRING": "nM",
    "MEASURED": 2
  },
  {
    "MOLECULE": "COC(C)(C)COc1cnc2c(c1)[C@]1(COC(N)=N1)c1cc(-c3cccc(F)c3F)ccc1O2 [Example 315]",
    "UNIT_STRING": "nM",
    "MEASURED": 31.7
  },
  {
    "MOLECULE": "NC1=N[C@@]2(CO1)c1cc(-c3cncnc3)c(F)cc1Oc1c(F)cc(C3=CCOCC3)cc12 [Example 1038]",
    "UNIT_STRING": "nM",
    "MEASURED": 10
  },
  {
    "MOLECULE": "NC1=N[C@@]2(CO1)c1cc(-c3cccc(Cl)c3F)ccc1Oc1ncc(C3=CCOCC3)cc12 [Example 170]",
    "UNIT_STRING": "nM",
    "MEASURED": 18.3
  },
  {
    "MOLECULE": "N#Cc1cccc(-c2ccc3c(c2)[C@@]2(COC(N)=N2)c2cc(C4=CCCOC4)nc(F)c2O3)c1 [Example 742]",
    "UNIT_STRING": "nM",
    "MEASURED": 8
  }
]

Value of measured IC50 for the entry CC1(C)CCN(c2cnc3c(c2)[C@]2(COC(N)=N2)c2cc(C#CC4CC4)ccc2O3)C1 [Example 182] : 22

Value of measured IC50 for the entry COCC#Cc1cncc(-c2ccc3c(c2)C2(COC(N)=N2)c2cc(OC)cc(F)c2O3)c1 (stereo not drawn) [Example 843] : 57

Value of measured IC50 for the entry NC1=N[C@@]2(CS1)c1cc(-c3cccnc3F)ccc1Oc1ncc(C3CCOCC3)cc12 [Example 729] : 43

Value of measured IC50 for the entry Cn1ccc(-c2cnc3c(c2)[C@]2(COC(N)=N2)c2cc(C#CC(C)(C)C)ccc2O3)n1 [Example 180] : 165

---

# System: Aβ40 in conditioned medium of cells stably expressing Amyloid Precursor Protein (APP)
# ASSAY_NAME: In vitro BACE cell-based assay (Aβ40 in conditioned medium, sandwich ELISA)
# APPLIED_CONDITIONS: Homo sapiens, HEK293, average IC50; read-out: HEK cell assay
# pIC50 annotations
To interpret pIC50, take it as minus log10 of a concentration measured in moles per litre.

# count of solved cases: 8
[
  {
    "SMILES": "COc1ncccc1-c1ccc2c(c1)[C@@]1(COC(N)=N1)c1cc(C3=CCOCC3)ncc1O2",
    "TARGET_DESC": "Aβ40 in conditioned medium of cells stably expressing Amyloid Precursor Protein (APP)",
    "ENDPOINT_LABEL": "pIC50",
    "MEASURED": 6.97
  },
  {
    "SMILES": "NC1=N[C@]2(CO1)c1cc(-c3cccnc3F)ccc1Oc1cc(OC(F)(F)F)c(-c3ccnc(F)c3)cc12",
    "TARGET_DESC": "Aβ40 in conditioned medium of cells stably expressing Amyloid Precursor Protein (APP)",
    "ENDPOINT_LABEL": "pIC50",
    "MEASURED": 5.14
  },
  {
    "SMILES": "CC1(C#Cc2cc3c(cc2F)Oc2ccc(-c4cccnc4F)cc2[C@@]32COC(N)=N2)COC1",
    "TARGET_DESC": "Aβ40 in conditioned medium of cells stably expressing Amyloid Precursor Protein (APP)",
    "ENDPOINT_LABEL": "pIC50",
    "MEASURED": 7.52
  },
  {
    "SMILES": "NC1=N[C@@]2(CO1)c1cc(-c3cccnc3F)ccc1Oc1c(F)cc(N3CC[C@@H](F)C3)cc12",
    "TARGET_DESC": "Aβ40 in conditioned medium of cells stably expressing Amyloid Precursor Protein (APP)",
    "ENDPOINT_LABEL": "pIC50",
    "MEASURED": 8.07
  },
  {
    "SMILES": "NC1=N[C@@]2(CS1)c1cc(-c3cccnc3F)ccc1Oc1c(F)cc(C3=CCOCC3)cc12",
    "TARGET_DESC": "Aβ40 in conditioned medium of cells stably expressing Amyloid Precursor Protein (APP)",
    "ENDPOINT_LABEL": "pIC50",
    "MEASURED": 8.00
  },
  {
    "SMILES": "Cc1nn(C)cc1-c1cccc(-c2ccc3c(c2)[C@@]2(COC(N)=N2)c2cc(C4=CCOCC4)ncc2O3)c1",
    "TARGET_DESC": "Aβ40 in conditioned medium of cells stably expressing Amyloid Precursor Protein (APP)",
    "ENDPOINT_LABEL": "pIC50",
    "MEASURED": 6.25
  },
  {
    "SMILES": "NC1=N[C@@]2(CO1)c1cc(-c3cccc(Cl)c3)ccc1Oc1ncc(C3=CCCOC3)cc12",
    "TARGET_DESC": "Aβ40 in conditioned medium of cells stably expressing Amyloid Precursor Protein (APP)",
    "ENDPOINT_LABEL": "pIC50",
    "MEASURED": 8.30
  },
  {
    "SMILES": "NC1=N[C@@]2(CO1)c1cc(-c3cccnc3F)ccc1Oc1c(F)cc(N3CCC4(CC3)COC4)cc12",
    "TARGET_DESC": "Aβ40 in conditioned medium of cells stably expressing Amyloid Precursor Protein (APP)",
    "ENDPOINT_LABEL": "pIC50",
    "MEASURED": 8.11
  }
]

Value of measured pIC50 for the entry COc1nc(C2=CCCOC2)cc2c1Oc1ccc(-c3cccnc3)cc1[C@@]21COC(N)=N1 : 8.22

Value of measured pIC50 for the entry CC(C)(C#N)COc1cc(F)c2c(c1)[C@]1(COC(N)=N1)c1cc(-c3cncc(Cl)c3)ccc1O2 : 8.35

Value of measured pIC50 for the entry NC1=N[C@@]2(CS1)c1cc(-c3cccnc3F)ccc1Oc1ncc(-c3ccnc(F)c3)cc12 : 7.64

Value of measured pIC50 for the entry NC1=N[C@@]2(CS1)c1cc(-c3cccnc3)ccc1Oc1c2cc(-c2cccnc2)nc1F : 8.52

Value of measured pIC50 for the entry Cc1cncc(-c2ccc3c(c2)[C@@]2(COC(N)=N2)c2cc(OCC4(C)COC4)c(F)cc2O3)c1 : 7.34

Value of measured pIC50 for the entry NC1=N[C@@]2(CO1)c1cc(-c3cccnc3F)ccc1Oc1c(F)cc([C@@H]3CCCOC3)cc12 : 7.80

Value of measured pIC50 for the entry CC1(C)C=C(c2cc3c(c(F)n2)Oc2ccc(-c4cccnc4F)cc2[C@]32CSC(N)=N2)CCO1 : 7.85

Value of measured pIC50 for the entry CC1(C)C=C(c2cnc3c(c2)[C@]2(CSC(N)=N2)c2cc(-c4cccc(C#N)c4F)ccc2O3)CCO1 : 6.50

Value of measured pIC50 for the entry CC(C)(C)C#Cc1ccc2c(c1)[C@@]1(COC(N)=N1)c1cc(C3=CCOCC3)ncc1O2 : 6.96

Value of measured pIC50 for the entry CC1(C#Cc2cc3c(cn2)Oc2ccc(-c4ccccc4)cc2[C@@]32COC(N)=N2)COC1 : 6.76

Value of measured pIC50 for the entry NC1=N[C@@]2(CS1)c1cc(-c3cccnc3F)ccc1Oc1c(F)cc(-c3ccnc(F)c3)cc12 : 7.36

---

# TARGET_DESC: UniProtKB P56817
# Sequence (P56817 46-501, species assumed): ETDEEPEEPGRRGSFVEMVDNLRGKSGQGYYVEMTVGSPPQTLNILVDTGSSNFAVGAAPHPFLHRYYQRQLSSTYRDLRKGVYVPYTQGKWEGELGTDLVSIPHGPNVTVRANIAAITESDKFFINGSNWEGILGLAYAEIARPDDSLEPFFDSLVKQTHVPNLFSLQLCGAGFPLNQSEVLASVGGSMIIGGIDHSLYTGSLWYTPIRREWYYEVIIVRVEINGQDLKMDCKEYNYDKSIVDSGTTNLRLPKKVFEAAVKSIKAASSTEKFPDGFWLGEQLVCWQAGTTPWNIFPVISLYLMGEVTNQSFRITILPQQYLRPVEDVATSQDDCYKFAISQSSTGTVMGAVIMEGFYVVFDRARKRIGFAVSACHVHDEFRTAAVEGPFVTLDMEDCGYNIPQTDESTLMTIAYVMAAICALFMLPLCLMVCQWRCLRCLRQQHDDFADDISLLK
# ASSAY_NAME: In vitro enzymatic BACE FRET (fluorescence resonance energy transfer) assay
# Type: biochemical
# APPLIED_CONDITIONS: average IC50, enzyme assay; read-out: BACE 1 FRET assay
ENDPOINT_LABEL: pIC50
To interpret pIC50, take it as minus log10 of a concentration measured in moles per litre.

# count of solved cases: 3
[
  {
    "SMILES": "NC1=N[C@]2(CO1)c1cc(-c3cccnc3)ccc1Oc1c2cc(-c2ccnc(F)c2)c(F)c1F",
    "ENDPOINT_LABEL": "pIC50",
    "MEASURED": 7.22
  },
  {
    "SMILES": "NC1=N[C@@]2(CO1)c1cc(-c3cnccn3)ccc1Oc1c(F)cc(C3=CCOCC3)cc12",
    "ENDPOINT_LABEL": "pIC50",
    "MEASURED": 8.70
  },
  {
    "SMILES": "NC1=N[C@@]2(CO1)c1cc(-c3cncc(F)c3)ccc1Oc1c2cc(N2CC[C@H](F)C2)nc1F",
    "ENDPOINT_LABEL": "pIC50",
    "MEASURED": 9.52
  }
]

Now take the following compound into account.
Value of measured pIC50 for the entry CC(C)(C)C#Cc1cc2c(nc1F)Oc1ccc(-c3cccnc3F)cc1[C@@]21COC(N)=N1 : 9.40
